Source of measurements: patent US8138191B2

assay: in vitro; conditions: human, Caco-2, pH 7.4, Percent Recovery 2nd
endpointName: recovery at 10 µM (%)
Field: numeric (%). Do not append units.

State the recorded recovery at 10 µM for this entry: CC(C)NCC(O)COc1cccc2ccccc12 (stereo not shown)
59

* * *

experiment: in vitro; type: in vitro ADME; settings: mixed breeds, dog, % Recovery 1st
endpointName: recovery at 10 µM (%)
Give a bare numeral; the unit % is implied.

Could you tell me which recovery at 10 µM is on file for S=C(N/N=C1/CCCc2cccnc21)N1CCN(c2ccccn2)CC1 [COTI-2] ?
42.6

* * *

assay: in vivo; conditions: both, rat, in vivo, po
endpointName: Tmax

I have this molecule here, S=C(N/N=C1/CCCc2cccnc21)N1CCN(c2ccccn2)CC1 [COTI-2] , and I need its recorded Tmax.
4 h

* * *

target: UniProtKB P10632; assay: in vitro; conditions: both, human liver microsomes, pH 7.4, probe paclitaxel (10 µM)
Sequence (P10632 whole entry): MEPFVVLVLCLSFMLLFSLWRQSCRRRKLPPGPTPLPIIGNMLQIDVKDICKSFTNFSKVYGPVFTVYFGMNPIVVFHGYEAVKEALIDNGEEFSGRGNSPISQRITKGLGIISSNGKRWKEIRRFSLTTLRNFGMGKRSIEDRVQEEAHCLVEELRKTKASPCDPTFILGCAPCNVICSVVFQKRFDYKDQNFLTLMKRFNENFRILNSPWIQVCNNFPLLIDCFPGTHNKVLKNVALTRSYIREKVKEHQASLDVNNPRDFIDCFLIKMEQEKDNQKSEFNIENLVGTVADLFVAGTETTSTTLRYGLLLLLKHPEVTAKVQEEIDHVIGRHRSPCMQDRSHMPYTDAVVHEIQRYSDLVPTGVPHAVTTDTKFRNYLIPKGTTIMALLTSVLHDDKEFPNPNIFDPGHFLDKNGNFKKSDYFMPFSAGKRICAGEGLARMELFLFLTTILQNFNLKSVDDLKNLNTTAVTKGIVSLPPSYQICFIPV
endpointName: inhibition at 15 min, 10 µM (%)
Numeric answer only, unit % assumed.

Tell me reported inhibition at 15 min, 10 µM for S=C(N/N=C1/CCCc2cccnc21)N1CCN(c2ccccn2)CC1 [COTI-2] , tested with UniProtKB P10632.
10

* * *

system: SHP-77 human SCLC cell line tumor xenografts; experiment: Nude mouse model of human SCLC, SHP-77 xenografts; format: in vivo; settings: IP on alternate days from Day 3, 31 days
Kindly state mean tumor volume for each of the entries shown.
Give just the number in mm^3; leave the unit off.

Suppose we examine the molecule CC(=O)O[C@@]12CO[C@@H]1C[C@H](O)[C@@]1(C)C(=O)[C@H](O)C3=C(C)[C@@H](OC(=O)[C@H](O)[C@@H](NC(=O)OC(C)(C)C)c4ccccc4)C[C@@](O)([C@@H](OC(=O)c4ccccc4)[C@H]21)C3(C)C [Taxotere®, docetaxel, reference compound] ; what mean tumor volume value has been reported?
183

What value of measured mean tumor volume is listed for S=C(N/N=C1/CCCc2cccnc21)N1CCN(c2ccccn2)CC1 [COTI-2] ?
9.9

* * *

test: in vitro; conditions: human, Caco-2, pH 7.4, Percent Recovery Mean
endpointName: recovery at 10 µM (%)
Output spec: scalar in %, unitless text.

Item CC(C)NCC(O)COc1cccc2ccccc12 (stereo not shown) has what recorded recovery at 10 µM?
58

* * *

system: SNB-19; assay: IC50 human glioma/astrocytoma cell lines (alamar Blue), SNB-19; details: Homo sapiens, SNB-19
endpointName: pIC50
Here pIC50 is given on a logarithmic scale as minus log10 of the concentration in mol/L.

Which pIC50 reading was recorded for the molecule O=NN(CCCl)C(=O)NCCCl [BCNU, 1,3-Bis(2-chloroethyl)-1-nitrosourea, reference compound] ?
5.65

// returns reported pIC50 for input S=C(N/N=C1/CCCc2cccnc21)N1CCN(c2ccccn2)CC1 [COTI-2]
8.10

I have this molecule here, CN1CCN(C(=S)NN=C2c3ncccc3-c3cccnc32)CC1 [COTI-219] , and I need its recorded pIC50.
5.70

* * *

assay: B-A Permeability (TC7, pH 7.4/7.4); settings: human, Caco-2, pH 7.4, Permeability 1st, B-A, TC7, pH 7.4/7.4; 1.0E−05 M; 1st determination
endpointName: Papp B→A at 10 µM (×10⁻⁶ cm/s)
Write the answer as a number in ×10⁻⁶ cm/s, unit excluded.

Which value of Papp B→A at 10 µM has been reported for COc1cc2c(c(OC)c1OC)-c1ccc(OC)c(=O)cc1[C@@H](NC(C)=O)CC2 [colchicine] in the records?
6.43
